Each recorded value in this set is attributed to the supplement of paper PMC10567573.

Here, each record is paired with measured protein stability index data.
B1: PBXIP1 (parent)
chain: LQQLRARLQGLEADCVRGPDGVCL

Variants of: B1
Test Protocol: protein stability index of a GFP-peptide fusion (GPS, HEK-293T) (PSI 1-6); higher = more stable;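 further: lentivirally expressed fusions sorted by FACS into six bins by GFP to DsRed ratio, PSI derived from sequencing read proportions per bin multiplied by bin number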
Experimental Context: c terminus: a fixed tail appended
Just the number, please, no unit after it.

Worked cases, answers included:
Please fill in: protein stability index reported for `V22S` = 3.23

Please fill in: protein stability index reported for `L11Q` = 3.97

Please fill in: protein stability index reported for `L8F` = 2.29

Please fill in: protein stability index reported for `C15S` = 2.16

Please fill in: protein stability index reported for `V16M` = 1.81

Please fill in: protein stability index reported for `R5N` = 2.87

Please fill in: protein stability index reported for `V22L` = 1.46

Please fill in: protein stability index reported for `L24Y` = 2.34

More entries:
Please fill in: protein stability index reported for `D14N` = 1.75
